# Tested on: U-87 UG astocytoma cells
# PROCEDURE_SUMMARY: Sulforhodamine B cytotoxicity, U-87
# Assay type: cell-based
pIC50: −log10 of the molar value.

COMPOUND: O=C(OCCS(=O)(=O)c1ccccc1)N1c2ccc(OCCO)cc2C23OC24CCCC3C#C/C=C\C#CC14 (stereo not shown)
ASSAYED_TARGET: U-87 UG astocytoma cells
pIC50: 6.11

====

# Tested on: SK-Mel-28 melanoma cells
# PROCEDURE_SUMMARY: Sulforhodamine B cytotoxicity, SK-Mel-28
# Type: cell-based
# TEST_SETTINGS: Table 7, SK-Mel-28; read-out: Cytotoxicity (IC50)
# Experimental: In addition to the screening already discussed, several of the before-described compounds and chimeras were screened against several or all of a panel of ten to twenty-five cancerous cell lines as target cells and seven "normal" cell preparations. This screening utilized a sulforhodamine B cytotoxidity assay as discussed below. IC50 values; i.e., the concentration of Compound required to kill one-half of the treated cells, were then calculated.

COMPOUND: CC(COC(=O)N1c2ccccc2C23OC24CCCC3C#CC=CC#CC14)S(=O)(=O)c1ccccc1 (stereo not shown)
ASSAYED_TARGET: SK-Mel-28 melanoma cells
IC50: < 100 µM
